Readings of activation for the listed molecules
target: Kelch-like ECH-associated protein 1 (Homo sapiens) + Nuclear factor erythroid 2-related factor 2 (Homo sapiens) (UniProt Q14145+Q16236); assay: Nrf2 nuclear translocation activators in cells, dose response, orthogonal assay for Keap1-Nrf2 interaction inhibitor project, PathHunter, U2OS cells, dry powder (AID 651833); conditions: beta-gal luminescence, 3 h, at 38 µM (top of the series)
Sequence (Q14145 whole entry, looked up): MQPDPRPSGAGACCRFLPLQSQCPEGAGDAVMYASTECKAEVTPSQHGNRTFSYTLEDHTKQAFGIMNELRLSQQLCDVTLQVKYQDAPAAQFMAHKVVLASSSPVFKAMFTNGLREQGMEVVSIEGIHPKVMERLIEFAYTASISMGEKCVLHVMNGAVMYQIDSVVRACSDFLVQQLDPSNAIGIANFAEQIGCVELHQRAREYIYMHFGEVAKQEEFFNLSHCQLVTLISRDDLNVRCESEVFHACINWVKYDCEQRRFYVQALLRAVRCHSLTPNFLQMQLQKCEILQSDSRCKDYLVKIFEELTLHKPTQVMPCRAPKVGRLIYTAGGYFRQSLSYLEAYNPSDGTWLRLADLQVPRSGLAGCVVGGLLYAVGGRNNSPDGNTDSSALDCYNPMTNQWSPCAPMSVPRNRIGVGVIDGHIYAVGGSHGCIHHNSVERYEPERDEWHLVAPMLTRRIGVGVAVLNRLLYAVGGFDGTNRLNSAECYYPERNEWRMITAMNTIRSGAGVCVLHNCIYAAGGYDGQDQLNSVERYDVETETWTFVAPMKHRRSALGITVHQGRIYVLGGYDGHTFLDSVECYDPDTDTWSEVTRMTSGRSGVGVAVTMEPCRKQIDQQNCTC
Sequence (Q16236 whole entry, looked up): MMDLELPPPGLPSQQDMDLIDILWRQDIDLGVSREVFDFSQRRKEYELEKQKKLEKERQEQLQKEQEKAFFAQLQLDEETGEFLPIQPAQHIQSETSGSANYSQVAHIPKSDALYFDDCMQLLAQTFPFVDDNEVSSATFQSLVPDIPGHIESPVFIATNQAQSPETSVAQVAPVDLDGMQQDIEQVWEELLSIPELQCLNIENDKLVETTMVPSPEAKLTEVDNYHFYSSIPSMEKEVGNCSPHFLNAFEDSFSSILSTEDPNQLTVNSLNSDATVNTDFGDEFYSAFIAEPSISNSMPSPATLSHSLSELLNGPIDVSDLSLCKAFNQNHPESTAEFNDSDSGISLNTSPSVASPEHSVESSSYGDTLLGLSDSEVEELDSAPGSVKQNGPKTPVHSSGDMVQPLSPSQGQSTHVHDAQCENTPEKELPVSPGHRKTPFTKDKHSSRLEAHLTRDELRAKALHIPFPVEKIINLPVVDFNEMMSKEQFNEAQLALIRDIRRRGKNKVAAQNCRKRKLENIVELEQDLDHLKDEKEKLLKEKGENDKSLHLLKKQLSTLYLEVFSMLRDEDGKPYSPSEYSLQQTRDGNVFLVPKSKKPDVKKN

{"columns": ["Molecule", "activation, %"],
 "data": [
  ["O=C(O)C1CCCCC1C(=O)N1CCc2ccccc2C1c1ccccc1 (centres undefined)", -2.53],
  ["O=C(O)CCC(=O)N1CCc2ccccc2C1CN1C(=O)c2ccccc2C1=O (centres undefined)", 1.36],
  ["O=C(O)c1ccccc1C(=O)N1CCc2ccccc2C1CN1C(=O)c2ccccc2C1=O (centres undefined)", 4.54],
  ["O=C(NC[C@@H]1c2ccccc2CCN1C(=O)[C@@H]1CCCC[C@@H]1C(=O)O)c1ccc(CN2CCOCC2)cc1", 2.86],
  ["O=C(NCCO)c1ccccc1C(=O)NC[C@@H]1c2ccccc2CCN1C(=O)C1CCCCC1C(=O)O (some centres undefined)", 4.09],
  ["O=C(O)[C@H]1CCCC[C@H]1C(=O)N1CCc2ccccc2[C@H]1CNc1nc(Cl)nc2ccccc12", 5.4],
  ["C[C@@H](NC(=O)C1CCCC[C@H]1C(=O)O)c1ccccc1 (mixture of isomers)", -1.8],
  ["O=C(O)c1ccccc1C(=O)NC[C@@H]1c2ccccc2CCN1C(=O)[C@@H]1CCCC[C@@H]1C(=O)O", 0.179],
  ["O=C(Cc1ccccc1)NC[C@@H]1c2ccccc2CCN1C(=O)[C@@H]1CCCC[C@@H]1C(=O)O", 6.26]
]}
